Target: T1, human nerve growth factor (human, UniProt P01138 122-241)
T1 construct: Immobilised on CM5 chips for BIAcore, soluble in neuron survival assays; also called human NGF; hNGF
T1 sequence (P01138 122-241 limits assumed): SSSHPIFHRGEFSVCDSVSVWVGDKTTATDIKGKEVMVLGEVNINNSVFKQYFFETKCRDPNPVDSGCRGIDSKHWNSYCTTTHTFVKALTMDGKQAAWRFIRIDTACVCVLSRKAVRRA
Assay: BIAcore SPR screen, Fab over immobilised human NGF; KD calculated from koff with kon 4e4 M-1s-1
Examples of binders with documented Kd follow.
assay_readout: Kd (nM)

[[record]]
binder = "H19-L129 template Fab with L_S91E; L_K92R and H_Y101Y; H_G103A (Fab, V domains shown, See note of m8) VH: QVQLQESGPGLVKPSETLSLTCTVSGFSLIGYDLNWIRQPPGKGLEWIGIIWGDGTTDYNSAVKSRVTISKDTSKNQFSLKLSSVTAADTAVYYCARGGYYYATSYYFDYWGQGTLVTVS VL: DIQMTQSPSSLSASVGDRVTITCRASQSISNNLNWYQQKPGKAPKLLIYYTSRFHSGVPSRFSGSGSGTDFTFTISSLQPEDIATYYCQQERTLPYTFGQGTKLEIKR"
assay_readout = "Kd"
value_observed = 0.37

[[record]]
binder = "H19-L129 template Fab with L_S91E; L_K92K and H_Y101Y; H_G103A (Fab, V domains shown, See note of m8) VH: QVQLQESGPGLVKPSETLSLTCTVSGFSLIGYDLNWIRQPPGKGLEWIGIIWGDGTTDYNSAVKSRVTISKDTSKNQFSLKLSSVTAADTAVYYCARGGYYYATSYYFDYWGQGTLVTVS VL: DIQMTQSPSSLSASVGDRVTITCRASQSISNNLNWYQQKPGKAPKLLIYYTSRFHSGVPSRFSGSGSGTDFTFTISSLQPEDIATYYCQQEKTLPYTFGQGTKLEIKR"
assay_readout = "Kd"
value_observed = 0.5

[[record]]
binder = "8L2-6D5 (CDR-grafted antibody with framework mutation V71K) (Fab, V domains shown, Fab (human IgG2 CH1 + C-kappa, His tag at heavy chain C terminus); also called 8L2-6D5 Fab; 8L2-6D5 (control)) VH: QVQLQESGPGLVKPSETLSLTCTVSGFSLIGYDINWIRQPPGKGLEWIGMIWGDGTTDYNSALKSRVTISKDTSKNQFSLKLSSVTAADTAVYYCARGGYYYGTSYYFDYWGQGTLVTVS VL: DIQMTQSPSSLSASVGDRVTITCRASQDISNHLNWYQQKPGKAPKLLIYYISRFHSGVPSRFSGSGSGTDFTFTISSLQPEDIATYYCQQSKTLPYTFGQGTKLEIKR"
assay_readout = "Kd"
value_observed = 25


Origin of values: patent US20170088610A1
